Experiment: Pharmacokinetics in uninfected rats
Format: in vivo, rat
Conditions: male, Sprague-Dawley, rat; 25 mg/kg oral, brain; read-out: Cmax in the brain

# compound, Cmax (ng/mL)
records = [
    ("CC1(C)OB(O)c2cc(NC(=O)c3ccc(F)cc3C(F)(F)F)ccc21 [SCYX-7158]", 8500),
]

###

Assay: Lipophilicity
Type: physicochemical

# structure, logD
rows = [
    ("CC1(C)OB(O)c2cc(NC(=O)c3ccc(F)cc3C(F)(F)F)ccc21", 3.51),
]

###

Molecular target: hERG channel expressed in HEK-293 cells (Homo sapiens)
Sequence (Q12809 whole entry): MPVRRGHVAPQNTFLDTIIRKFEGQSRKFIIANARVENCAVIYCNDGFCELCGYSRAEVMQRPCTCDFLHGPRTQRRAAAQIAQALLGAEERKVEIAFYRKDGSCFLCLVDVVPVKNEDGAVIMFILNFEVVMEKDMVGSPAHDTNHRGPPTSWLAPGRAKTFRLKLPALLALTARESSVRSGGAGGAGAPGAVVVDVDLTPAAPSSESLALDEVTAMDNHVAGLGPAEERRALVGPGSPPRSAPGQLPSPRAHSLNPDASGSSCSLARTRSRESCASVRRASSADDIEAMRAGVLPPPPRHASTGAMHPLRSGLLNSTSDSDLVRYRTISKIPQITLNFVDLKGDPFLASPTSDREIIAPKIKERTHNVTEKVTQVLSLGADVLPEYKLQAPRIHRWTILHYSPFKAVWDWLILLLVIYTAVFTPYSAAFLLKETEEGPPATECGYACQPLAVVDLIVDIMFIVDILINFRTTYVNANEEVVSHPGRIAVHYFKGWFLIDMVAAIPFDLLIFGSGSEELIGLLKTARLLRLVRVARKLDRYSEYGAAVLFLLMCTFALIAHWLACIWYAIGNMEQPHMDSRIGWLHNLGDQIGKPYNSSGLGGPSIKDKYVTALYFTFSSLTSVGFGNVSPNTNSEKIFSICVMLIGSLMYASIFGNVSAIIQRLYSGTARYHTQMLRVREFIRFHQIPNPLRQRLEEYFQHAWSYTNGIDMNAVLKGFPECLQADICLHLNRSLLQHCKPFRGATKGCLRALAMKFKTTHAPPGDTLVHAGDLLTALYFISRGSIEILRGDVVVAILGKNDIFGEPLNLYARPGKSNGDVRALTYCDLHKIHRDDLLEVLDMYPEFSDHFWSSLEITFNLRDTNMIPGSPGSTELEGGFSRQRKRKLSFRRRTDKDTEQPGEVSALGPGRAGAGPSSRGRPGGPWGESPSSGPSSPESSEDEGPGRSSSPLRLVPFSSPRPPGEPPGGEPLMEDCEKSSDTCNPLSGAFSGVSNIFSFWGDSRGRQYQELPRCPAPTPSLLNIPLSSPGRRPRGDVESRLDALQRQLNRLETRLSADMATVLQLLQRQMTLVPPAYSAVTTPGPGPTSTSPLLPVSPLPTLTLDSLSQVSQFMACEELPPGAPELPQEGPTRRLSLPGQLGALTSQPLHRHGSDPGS
Experiment: hERG whole-cell patch clamp
Conditions: indicated by patch clamp fractional block
pIC50: −log10 of the molar value.

# compound, pIC50
measured = [
    ("CC1(C)OB(O)c2cc(NC(=O)c3ccc(F)cc3C(F)(F)F)ccc21 [SCYX-7158]", "< 4.00"),
]
